Every entry's value here was drawn from ChEMBL document CHEMBL1201862.

Test system: SK-MEL-2
EXPERIMENTAL_PROTOCOL: NCI tumour cell line growth inhibition, 48 h
Calls of active or inactive are those of the source. Rule as the data show it: active = GI50 up to about 1.1 µM and inactive = higher.
Outcomes: label 1 (active), label 0 (inactive)

- COMPOUND: "CCCCCCCCOC(=O)c1cc([N+](=O)[O-])c(Sc2[nH]cnc3ncnc2-3)c([N+](=O)[O-])c1"
  SYSTEM_NAME: "SK-MEL-2"
  CLASS_ASSIGNMENT: "label 0"
- COMPOUND: "CC(=O)Nc1[nH]c(C#N)nc1C#N"
  SYSTEM_NAME: "SK-MEL-2"
  CLASS_ASSIGNMENT: "label 0"
- COMPOUND: "CC(C)C[C@H](NC(=O)[C@H](Cc1cccc2ccccc12)NS(=O)(=O)c1cccc2cccnc12)B(O)O"
  SYSTEM_NAME: "SK-MEL-2"
  CLASS_ASSIGNMENT: "label 1"
- COMPOUND: "O=c1c2ccccc2c(=O)n2n1CC=CC2"
  SYSTEM_NAME: "SK-MEL-2"
  CLASS_ASSIGNMENT: "label 0"
- COMPOUND: "N#CC1=C(N)N(/N=C/c2ccco2)C(c2ccco2)C1(C#N)C#N (stereo not given)"
  SYSTEM_NAME: "SK-MEL-2"
  CLASS_ASSIGNMENT: "label 0"
